B1: Tesmin, residues 368 to 403; numbered along this chain, Q9Y4I5 (parent)
chain: KGCNCRRSGCLKNYCECYEAQIMCSSICKCIGCKNY

Variants of: B1
Assay: abundance fitness (aPCA) (normalised: wild type 0, dead -1); higher = more abundant; growth selection in yeast, the domain comes from the species named
Conditions: Homo sapiens
Label true (1) for high-side abundance fitness (at or above -0.04) and false (0) for low-side abundance fitness (below it).

Would you please look over these solved cases?
- Var: "I22A"
  Assigned category: "true (1)"
- Var: "N35Q"
  Assigned category: "true (1)"
- Var: "S25M"
  Assigned category: "false (0)"
- Var: "Y36I"
  Assigned category: "true (1)"
- Var: "C33W"
  Assigned category: "false (0)"

Request: State whether the measured abundance fitness reaches -0.04, counting equality as reaching it, for C30L
Response: false (0)

Request: Check if abundance fitness >= -0.04 (inclusive). Item: E16F
Response: false (0)

Request: State whether the measured abundance fitness reaches -0.04, counting equality as reaching it, for G2A
Response: false (0)

Request: Would you say K12R shows abundance fitness at minimum -0.04?
Response: false (0)

Request: Given K29H , state whether its abundance fitness is at least -0.04.
Response: true (1)

Request: Threshold query (abundance fitness >= -0.04) on L11K
Response: true (1)

Request: abundance fitness >= -0.04 for R6G ?
Response: true (1)

Request: Textbook exercise: given the entry E19G , state whether its abundance fitness is greater than or equal to -0.04.
Response: false (0)

Request: Reported abundance fitness reaches at least -0.04 for E16S ?
Response: false (0)

Request: I'd appreciate it if you could say whether K1G has abundance fitness at least equal to -0.04.
Response: false (0)
